- SYSTEM UNDER TEST: T1, Human interleukin-18 (recombinant human IL-18) (human, UniProt Q14116 37-193)
- T1 construct: also called hIL-18
- T1 sequence: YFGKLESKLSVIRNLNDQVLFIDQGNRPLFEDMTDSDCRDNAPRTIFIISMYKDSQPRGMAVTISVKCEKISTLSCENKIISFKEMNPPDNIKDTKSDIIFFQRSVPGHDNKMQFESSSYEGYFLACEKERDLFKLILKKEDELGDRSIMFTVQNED
- TEST SUMMARY: ELISA, human IL-18 captured by 16D10, antibody titrated
PROPERTY NAME: EC50 (ng/mL)
State the answer as a number, implicitly in ng/mL.

Below are worked cases with known answers.
get_value(item= H2L1 humanised anti-IL-18 antibody (antibody, human IgG1, kappa, V domains shown, Human IgG1 / kappa) VH: QVQLVQSGAEVKKPGASVKVSCKVSGEISTGYYFHWVRRRPGKGLEWMGRIDPEDDSTKYAERFKDRVTMTEDTSTDTAYMELSSLRSEDTAVYYCTTWRIYRDSSGRPFYVMDAWGQGTLVTVSS VL: DIQMTQSPSSVSASVGDRVTITCLASEDIYTYLTWYQQKPGKAPKLLIYGANKLQDGVPSRFSGSGSGTDFTLTISSLQPEDFATYYCLQGSKFPLTFGQGTKLEIKR , readout=EC50) returns 21

Lab book: EC50 of 2C10 rat-human chimera (chimaeric antibody 2C10c) (antibody, V domains shown, Rat 2C10 V regions joined to human IgG1 and kappa C regions; also called Chimera 2C10; 2C10 Chimera) VH: EVQLQQSGAELVRPGTSVKLSCKVSGEISTGYYFHFVRRRPGQGLEWIGRIDPEDDSTKYAERFKDRATLTAQTSSNTAYLNLSSLTSEDTATYFCTTWRIYRDSSGRPFYVMDAWGQGTLVTVSS VL: DIQMTQSPASLSASLGETVSIECLASEDIYTYLTWYQQKPGKSPQLLIYGANKLQDGVPSRFSGSGSGTQYSLKISGIQPEDEGDYFCLQGSKFPLTFGSGTKLEIKR noted as 7

---
# EC50 (binder: H3L3 humanised anti-IL-18 antibody (antibody, human IgG1, kappa, V domains shown, Human IgG1 / kappa) VH: QVQLVQSGAEVKKPGASVKVSCKVSGEISTGYYFHFVRRRPGKGLEWMGRIDPEDDSTKYAERFKDRVTMTADTSTDTAYMELSSLRSEDTATYFCTTWRIYRDSSGRPFYVMDAWGQGTLVTVSS VL: DIQMTQSPSSVSASVGDRVTITCLASEDIYTYLTWYQQKPGKAPQLLIYGANKLQDGVPSRFSGSGSGTDYTLTISSLQPEDEGDYYCLQGSKFPLTFGQGTKLEIKR ) is 9
